target: SARS-CoV-2 wild type spike protein (on reporter virus particles) (SARS-CoV-2, UniProt P0DTC2 14-1273); test: cell-based or functional assay
ENDPOINT_NAME: WT PsV IC50 (nM)
The response must be a number in nM with no trailing unit.

Reported WT PsV IC50 ( A-23.1 (antibody, V domains shown) VH: EVQLVESGGGLVQPGRSLRLSCAASGFTIDDYAMHWVRQAPGKGLEWVSGISWNGGTIGYADSVKGRFIISRDNAKNSLYLQMNSLRGEDMALYYCGKDRKREDPSLGGMDVWGQGTTVTVSS VL: SYVLTQPPSVSVAPGQTARITCLGNNIGSKSVHWYQQKPGQAPVLVVYDDTDRPSGIPERFSGSNSGNTATLTISRVEAGDEADYYCQVWDSESDHYVFGTGTKVTVL ) = 0.423

# binder A-24.2 (antibody, V domains shown) VH: EVQLVESGGGLVKPGRSLRLSCAASGFTFADYTMSWFRQAPGKGLEWVGFIRSEPYGGTTEYAASVKGRFTISRDDSKSIAYLQMNSLKTEDTAVYYCSRDPWYCSGGDCYAVTGSWFDPWGQGTLVTVSS VL: DIQMTQSPSSLSASVGDRVTITCQASQDIKQYLNWYQQKPGKAPKLLIYDQSNLETGVPSRFSGSGSGTDFTFTISSLQPEDVAIYYCQQYWNLPQTFGQGTKVEIK ; its WT PsV IC50 = 0.116

So for A-20.3 (antibody, V domains shown) VH: QVQLVQSGGGVVQPGRSLRLSCAASGFTFDNFAMHWVRQAPGKGLEWVAVILYDGINDYYADSVKGRFTISRGNSKNTLSLQMNSLRAEDTAVYYCARAQNYYDRHGTLQLDAFDIWGQGTLVTVSS VL: AIQMTQSPSSLSASVGDRVTITCRASDGIRNDLGWYQQKPGKAPKLLIYEASSLQSGVPSRFSGSGSGTDFTLTISSLQPEDFATYYCLQNYNYPLTFGGGTKVEIK , the logged WT PsV IC50 turned out to be 1.51
